- Experiment description: Plasma pharmacokinetics after single ascending doses (SAD), phase 1
- Format: in vivo, human (healthy adult participants)
- Measurement setup: human, single 1-h IV infusion 300 mg, plasma, n = 6, arithmetic mean ± SD
- Protocol: Participants were then discharged on day 3. Plasma and urine PK parameters were summarized for each cohort using descriptive statistics. Analyses using linear models were performed to assess dose proportionality (both single-dose cohorts 1–7 and multiple-dose cohorts 8–10). Dose-linearity of Cmax and AUC across the dose range was assessed by fitting the power model with ln-transformed parameter as response variables and ln-transformed dose (continuous variable) as a fixed effect. […]
Where a SMILES comes first, the peptide text is derived from it. Bridges are numbered along the chain shown (N, C = ends). [ ]: non-standard residue; d: D form. The star is where a group is joined. X1 = O=C(c1ccc(Cl)cc1Cl)*; Dab = NCC[C@H](N)C(=O)O; Abu = CC[C@H](N)C(=O)O; Dap = NC[C@H](N)C(=O)O
Quantity kind: AUC(0-inf)

Q) // returns reported AUC(0-inf) for input CC[C@@H]1NC(=O)[C@@H](CC(C)C)NC(=O)[C@H](CCN)NC(=O)[C@@H](NC(=O)[C@H](CN)NC(=O)[C@@H](NC(=O)[C@H](CCN)NC(=O)c2ccc(Cl)cc2Cl)[C@@H](C)O)CCNC(=O)[C@H]([C@@H](C)O)NC(=O)[C@H](CCN)NC(=O)[C@H](CCN)NC1=O [BRII-693] (X1-[Dab]T[Dap][Dab][Dab][dL][Abu][Dab][Dab]T; lactam 4-C; N-terminus assumed)
A) 69800 ng·h/mL
